Catalogue of IC50 values
- ASSAY SYSTEM: recombinant mTOR (FLAG-tagged, residues 1362-2549) (Homo sapiens)
- METHOD SUMMARY: In vitro mTOR kinase assay (Test (a), AlphaScreen)
- STATED CONDITIONS: ATP 20 μM, read-out: Test (a): IC50 versus mTOR kinase
- Text: (a) In Vitro mTOR Kinase Assay Following expression in the mammalian HEK293 cell line, expressed protein was purified using the FLAG epitope tag using standard purification techniques. […] The resultant signals arising from laser light excitation at 680 nm were read using a Packard Envision instrument. […] mTOR enzyme inhibition for a given test compound was expressed as an IC50 value.
A number alone suffices; assume nM.

compound="CCNC(=O)Nc1ccc(-c2nc(CS(C)(=O)=O)cc(N3CCOC[C@@H]3C)n2)cc1 [Example 1]" measured_endpoint=IC50 obs_value=6.2
compound="CC(CO)NC(=O)Nc1ccc(-c2nc(CS(C)(=O)=O)cc(N3CCOC[C@@H]3C)n2)cc1 (stereo partly drawn) [Example 35]" measured_endpoint=IC50 obs_value=64
compound="C[C@H]1COCCN1c1cc(CS(C)(=O)=O)nc(-c2ccc(NC(=O)NCCN3CCOCC3)cc2)n1 [Example 35k]" measured_endpoint=IC50 obs_value=1200
compound="CNC(=O)Nc1ccc(-c2nc(CS(=O)(=O)C(C)C)cc(N3CCOC[C@@H]3C)n2)cc1 [Example 19d]" measured_endpoint=IC50 obs_value=66
compound="CCNC(=O)Nc1ccc(-c2nc(N3CCOC[C@@H]3C)cc(C(C)(C)S(C)(=O)=O)n2)cc1 [Example 21g]" measured_endpoint=IC50 obs_value=20

**Q:** Please look at this compound and report its IC50: C[C@H]1COCCN1c1cc(CS(C)(=O)=O)nc(-c2cnc(NC(=O)NC3CC3)s2)n1 [Example 46i]
**A:** 97

----------
The following molecules are shown together with reported pIC50 values.
- ASSAY SYSTEM: recombinant mTOR (FLAG-tagged, residues 1362-2549) (Homo sapiens, UniProt P42345)
- Sequence (P42345 1362-2549): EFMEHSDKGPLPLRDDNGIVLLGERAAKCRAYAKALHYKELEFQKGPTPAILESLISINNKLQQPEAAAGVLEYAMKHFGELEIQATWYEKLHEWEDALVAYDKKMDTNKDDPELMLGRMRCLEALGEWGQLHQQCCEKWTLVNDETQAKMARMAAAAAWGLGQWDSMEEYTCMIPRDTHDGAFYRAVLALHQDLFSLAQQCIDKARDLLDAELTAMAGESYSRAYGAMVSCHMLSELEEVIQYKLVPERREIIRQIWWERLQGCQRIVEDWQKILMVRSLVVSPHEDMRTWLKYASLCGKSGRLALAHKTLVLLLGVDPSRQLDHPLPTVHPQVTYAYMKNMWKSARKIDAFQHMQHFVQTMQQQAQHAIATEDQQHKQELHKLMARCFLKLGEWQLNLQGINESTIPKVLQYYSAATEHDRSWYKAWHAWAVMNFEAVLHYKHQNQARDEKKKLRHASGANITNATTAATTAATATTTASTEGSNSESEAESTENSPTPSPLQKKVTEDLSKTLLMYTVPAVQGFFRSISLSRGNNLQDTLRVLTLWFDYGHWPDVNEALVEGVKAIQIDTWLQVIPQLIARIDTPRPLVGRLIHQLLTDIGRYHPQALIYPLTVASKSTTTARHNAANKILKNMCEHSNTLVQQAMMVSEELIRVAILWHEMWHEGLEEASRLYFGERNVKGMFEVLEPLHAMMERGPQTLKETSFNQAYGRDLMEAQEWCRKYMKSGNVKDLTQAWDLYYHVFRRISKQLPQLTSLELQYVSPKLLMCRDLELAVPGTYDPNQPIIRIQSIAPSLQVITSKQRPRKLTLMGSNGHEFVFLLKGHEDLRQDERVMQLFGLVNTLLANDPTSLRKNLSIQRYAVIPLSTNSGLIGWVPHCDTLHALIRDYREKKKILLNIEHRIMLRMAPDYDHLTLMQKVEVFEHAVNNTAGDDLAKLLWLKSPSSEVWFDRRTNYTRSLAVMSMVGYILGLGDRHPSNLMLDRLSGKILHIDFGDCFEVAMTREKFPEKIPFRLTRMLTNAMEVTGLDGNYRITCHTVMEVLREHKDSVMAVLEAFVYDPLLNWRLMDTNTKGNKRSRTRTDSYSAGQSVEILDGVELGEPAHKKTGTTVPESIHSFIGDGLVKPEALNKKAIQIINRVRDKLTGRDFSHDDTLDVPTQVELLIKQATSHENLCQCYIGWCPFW
- METHOD SUMMARY: In vitro mTOR kinase assay (Test (a), AlphaScreen)
- STATED CONDITIONS: ATP 20 μM, read-out: Test (a): IC50 versus mTOR kinase
Note on pIC50: it is the negative log10 of concentration, concentration in mol/L.

# example entries with known answers
molecule="C[C@H]1COCCN1c1cc(CN(C)CCO)nc(-c2ccc(NC(=O)NC3CC3)cc2)n1 [Example 49a]" assay_system="recombinant mTOR (FLAG-tagged, residues 1362-2549) (Homo sapiens, UniProt P42345)" obs_value=6.82
molecule="C[C@H]1COCCN1c1cc(C(C)(C)S(C)(=O)=O)nc(-c2cnc(NC(=O)NC3CC3)s2)n1 [Example 47a]" assay_system="recombinant mTOR (FLAG-tagged, residues 1362-2549) (Homo sapiens, UniProt P42345)" obs_value=5.92
molecule="CN(C)CCNC(=O)Nc1ccc(-c2nc(CS(C)(=O)=O)cc(N3CCOCC3)n2)cc1 [Example 45j]" assay_system="recombinant mTOR (FLAG-tagged, residues 1362-2549) (Homo sapiens, UniProt P42345)" obs_value=6.14
molecule="C[C@H]1COCCN1c1cc(CNC2CCN(C)CC2)nc(-c2ccc(NC(=O)Nc3ccccc3)cc2)n1 [Example 30c]" assay_system="recombinant mTOR (FLAG-tagged, residues 1362-2549) (Homo sapiens, UniProt P42345)" obs_value=5.96
molecule="CNC(=O)Nc1ccc(-c2nc(CO)cc(N3CCOC[C@@H]3C)n2)cc1 [Example 18]" assay_system="recombinant mTOR (FLAG-tagged, residues 1362-2549) (Homo sapiens, UniProt P42345)" obs_value=6.92

// moving on: another record for pIC50
**Q:** Dear colleague, please send me the reported pIC50 for CCNC(=O)Nc1ccc(-c2nc(CS(C)(=O)=O)cc(N3CCOC[C@@H]3C)n2)cc1OC [Example 3a] when you can.
**A:** 7.00

----------
- ASSAY SYSTEM: recombinant mTOR (FLAG-tagged, residues 1362-2549) (Homo sapiens)
- METHOD SUMMARY: In vitro mTOR kinase assay (Test (a), AlphaScreen)
- STATED CONDITIONS: ATP 20 μM, read-out: Test (a): IC50 versus mTOR kinase
- Text: (a) In Vitro mTOR Kinase Assay Following expression in the mammalian HEK293 cell line, expressed protein was purified using the FLAG epitope tag using standard purification techniques. […] The resultant signals arising from laser light excitation at 680 nm were read using a Packard Envision instrument. […] mTOR enzyme inhibition for a given test compound was expressed as an IC50 value.
MEASURED ENDPOINT: IC50 (nM)
# number only, unit nM dropped from output

molecule="C[C@H]1COCCN1c1cc(CS(C)(=O)=O)nc(-c2ccc(NC(=O)NCc3cccc(N(C)C)c3)cc2)n1 [Example 24i]" measured_endpoint=IC50 obs_value=330
molecule="C[C@H]1COCCN1c1cc(CS(=O)(=O)c2ccncc2)nc(-c2ccc(NC(=O)NC3CC3)cc2)n1 [Example 43]" measured_endpoint=IC50 obs_value=76
molecule="CNC(=O)Nc1ncc(-c2nc(N3CCOC[C@@H]3C)cc(C(C)(C)S(C)(=O)=O)n2)s1 [Example 47]" measured_endpoint=IC50 obs_value=260
molecule="CC(C)NC(=O)Nc1cccc(-c2nc(CS(C)(=O)=O)cc(N3CCOC[C@@H]3C)n2)c1 [Example 8g]" measured_endpoint=IC50 obs_value=960
molecule="CNC(=O)CS(=O)(=O)Cc1cc(N2CCOC[C@@H]2C)nc(-c2ccc(NC(=O)NC3CC3)cc2)n1 [Example 43a]" measured_endpoint=IC50 obs_value=87
molecule="C[C@H]1COCCN1c1cc(CS(C)(=O)=O)nc(-c2ccc(NC(=O)N3CCC3)cc2)n1 [Example 2]" measured_endpoint=IC50 obs_value=310
molecule="C[C@H]1COCCN1c1cc(CS(=O)(=O)c2ccccc2)nc(-c2ccc(NC(=O)NC3CC3)cc2)n1 [Example 20g]" measured_endpoint=IC50 obs_value=39
molecule="COc1ccc(NC(=O)Nc2ccn(-c3nc(CS(C)(=O)=O)cc(N4CCOC[C@@H]4C)n3)n2)cc1 [Example 25a]" measured_endpoint=IC50 obs_value=4400
molecule="C[C@H]1COCCN1c1cc(CS(C)(=O)=O)nc(-c2ccc(NC(=O)Nc3cnn(C)c3)cc2)n1 [Example 22f]" measured_endpoint=IC50 obs_value=91
molecule="CCNC(=O)NC1CCN(c2nc(CS(C)(=O)=O)cc(N3CCOC[C@@H]3C)n2)CC1 [Example 23a]" measured_endpoint=IC50 obs_value=3700

**Q:** Look up and state reported IC50 for CS(=O)(=O)Cc1cc(N2CCOCC2)nc(-c2ccc(NC(=O)Nc3ccccc3)cc2)n1 [Example 7h]
**A:** 240

**Q:** Identify measured IC50 associated with C[C@H]1COCCN1c1cc(CS(=O)(=O)CC(N)=O)nc(-c2ccc(NC(=O)NCc3cnn(C)c3)cc2)n1 [Example 53a]
**A:** 600

**Q:** Specify IC50 for CN(CCO)C(=O)Nc1ccc(-c2nc(CS(C)(=O)=O)cc(N3CCOCC3)n2)cc1 [Example 45] and stop.
**A:** 660

----------
Listed here are compounds together with their documented IC50.
- ASSAY SYSTEM: recombinant mTOR (FLAG-tagged, residues 1362-2549) (Homo sapiens, UniProt P42345)
- METHOD SUMMARY: In vitro mTOR kinase assay (Test (a), AlphaScreen)
- STATED CONDITIONS: ATP 20 μM, read-out: Test (a): IC50 versus mTOR kinase
- Text: (a) In Vitro mTOR Kinase Assay Following expression in the mammalian HEK293 cell line, expressed protein was purified using the FLAG epitope tag using standard purification techniques. […] The resultant signals arising from laser light excitation at 680 nm were read using a Packard Envision instrument. […] mTOR enzyme inhibition for a given test compound was expressed as an IC50 value.
Numbers only; they are read as nM.

Example entries and their recorded answers appear below.
compound="C[C@H]1COCCN1c1cc(CS(C)(=O)=O)nc(-c2ccc(NC(=O)NC(C)(C)C)cc2)n1 [Example 35f]" assay_system="recombinant mTOR (FLAG-tagged, residues 1362-2549) (Homo sapiens, UniProt P42345)" unit_text=nM obs_value=820
compound="Cc1n[nH]c(C)c1NC(=O)Nc1ccc(-c2nc(CS(C)(=O)=O)cc(N3CCOC[C@@H]3C)n2)cc1 [Example 22i]" assay_system="recombinant mTOR (FLAG-tagged, residues 1362-2549) (Homo sapiens, UniProt P42345)" unit_text=nM obs_value=4300
compound="CNC(=O)Nc1ccc(-c2nc(N3CCOCC3)cc(C(C)(C)S(C)(=O)=O)n2)cc1 [Example 21]" assay_system="recombinant mTOR (FLAG-tagged, residues 1362-2549) (Homo sapiens, UniProt P42345)" unit_text=nM obs_value=50
compound="CNC(=O)Nc1ccc(-c2nc(CS(=O)(=O)CC(N)=O)cc(N3CCOC[C@@H]3C)n2)cc1 [Example 26a]" assay_system="recombinant mTOR (FLAG-tagged, residues 1362-2549) (Homo sapiens, UniProt P42345)" unit_text=nM obs_value=37
compound="C[C@H]1COCCN1c1cc(CNC2CC2)nc(-c2ccc(NC(=O)NCc3cnn(C)c3)cc2)n1 [Example 52a]" assay_system="recombinant mTOR (FLAG-tagged, residues 1362-2549) (Homo sapiens, UniProt P42345)" unit_text=nM obs_value=330

**Q:** Let me know recorded IC50 for COCCNCc1cc(N2CCOC[C@@H]2C)nc(-c2ccc(NC(=O)NC3CC3)cc2)n1 [Example 49c] , thanks.
**A:** 40

**Q:** Please give measured IC50 of the following entry: CS(=O)(=O)Cc1cc(N2CCOCC2)nc(-c2ccc(NC(=O)Nc3ccon3)cc2)n1 [Example 34a]
**A:** 42

**Q:** // fetch IC50 given entry CC(C)S(=O)(=O)Cc1cc(N2CCOCC2)nc(-c2ccc(NC(=O)NC3CCN(C)CC3)cc2)n1 [Example 20o]
**A:** 1300

**Q:** Find the measured IC50 of CC(C)S(=O)(=O)Cc1cc(N2CCOC[C@@H]2C)nc(-c2ccc(NC(=O)NC3CCN(C)CC3)cc2)n1 [Example 20t] and report it.
**A:** 600

**Q:** Identify measured IC50 associated with C[C@H]1COCCN1c1cc(CS(C)(=O)=O)nc(-c2cnc(NC(=O)NCCN(C)C)s2)n1 [Example 46g]
**A:** 730

Cited source: patent US7750003B2
